assay: Metabolic stability assay, CD-1 mouse microsomes; type: in vitro ADME; settings: both sexes, CD-1, mouse, microsomes

{"columns": ["STRUCTURE SMILES", "UNIT OF MEASURE", "half-life at 10 µM"],
 "data": [
  ["CN1CCC[C@H](NC(=O)Cc2cccc3ccccc23)C(=O)N2C[C@@H](NC(=O)Cc3ccc4ccccc4c3)C[C@H]2COc2cccc(c2)C1=O", "min", 13],
  ["CN1CCC[C@H](NC(=O)Cc2cccc3ccccc23)C(=O)N2C[C@@H](NC(=O)Nc3cccc(N(C)C)c3)C[C@H]2COc2cccc(c2)C1=O", "min", 12],
  ["CN1CCC[C@H](NC(=O)OCc2ccccc2)C(=O)N2C[C@@H](NC(=O)Cc3ccc4ccccc4c3)C[C@H]2COc2cccc(c2)C1=O", "min", 22],
  ["CNC(=O)[C@H]1CCC(=O)N(C)CC(=O)N2C[C@@H](NC(=O)Cc3ccc4ccccc4c3)C[C@H]2COc2ccc(F)cc2C(=O)N1C", "min", 29],
  ["CCCCC(=O)N[C@H]1C[C@H]2COc3ccc(F)cc3C(=O)N(C)[C@@H](C(=O)NCc3ccc4ccccc4c3)CCC(=O)N(C)CC(=O)N2C1", "min", 36],
  ["CCCCCCCCCC(=O)N[C@H]1CN(C)C(=O)c2cccc(c2)OC[C@@H]2C[C@H](NC(=O)Cc3c[nH]c4ccccc34)CN2C(=O)CN(C)C1=O", "min", 17]
]}

###

This section presents molecules with their documented half-life at 10 µM values.
test: Metabolic stability assay, human microsomes; format: in vitro ADME; details: both sexes, human, microsomes

{"columns": ["STRUCTURE SMILES", "half-life at 10 µM, min"],
 "data": [
  ["CN1CCC[C@H](N)C(=O)N2C[C@@H](Oc3ccccc3)C[C@H]2COc2cccc(c2)C1=O", 39],
  ["CN(C)CCNC(=O)[C@@H]1CCC(=O)N(C)CC(=O)N2C[C@@H](NC(=O)Nc3cccc4ccccc34)C[C@H]2COc2ccc(F)cc2C(=O)N1C", 22],
  ["CN1CCC[C@H](NCC(C)(C)C)C(=O)N2C[C@@H](Oc3ccccc3)C[C@H]2COc2cccc(c2)C1=O", 8],
  ["CN1CCC[C@H](NS(=O)(=O)c2ccc(-c3ccccc3)cc2)C(=O)N2C[C@@H](NC(=O)Cc3ccc4ccccc4c3)C[C@H]2COc2cccc(c2)C1=O", 22]
]}

###

This section presents compounds with their documented IC50 values.
target: human Kv1.3 (Homo sapiens, UniProt P22001); assay: Thallium-sensitive fluorescence assay for the voltage gated ion channel Kv1.3 in Jurkat cells; settings: read-out: KV1,3 antagonist activity IC50
Sequence (P22001 whole entry): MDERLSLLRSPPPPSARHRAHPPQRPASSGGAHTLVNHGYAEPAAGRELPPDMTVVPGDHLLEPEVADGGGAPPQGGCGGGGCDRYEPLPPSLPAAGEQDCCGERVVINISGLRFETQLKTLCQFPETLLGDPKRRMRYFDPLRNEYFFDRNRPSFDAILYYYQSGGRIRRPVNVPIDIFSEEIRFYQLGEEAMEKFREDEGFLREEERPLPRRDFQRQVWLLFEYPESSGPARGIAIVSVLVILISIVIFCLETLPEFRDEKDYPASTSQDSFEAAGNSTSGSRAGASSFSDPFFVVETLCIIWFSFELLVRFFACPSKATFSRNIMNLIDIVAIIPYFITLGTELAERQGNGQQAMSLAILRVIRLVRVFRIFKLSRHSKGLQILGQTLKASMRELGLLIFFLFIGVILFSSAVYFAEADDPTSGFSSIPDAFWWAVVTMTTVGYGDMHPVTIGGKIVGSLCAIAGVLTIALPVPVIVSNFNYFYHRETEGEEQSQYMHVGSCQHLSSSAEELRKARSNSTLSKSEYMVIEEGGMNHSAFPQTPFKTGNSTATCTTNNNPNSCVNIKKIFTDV

{"columns": ["COMPOUND", "TEST TARGET", "IC50"],
 "data": [
  ["CN1CCC(NC(=O)OCc2ccccc2)C(=O)N2CC(NC(=O)Cc3ccc4ccccc4c3)CC2COc2cccc(c2)C1=O (centres unmarked)", "human Kv1.3 (Homo sapiens, UniProt P22001)", "1690 nM"],
  ["CN1CC[C@H](NC(=O)Cc2cccc3ccccc23)C(=O)N2C[C@@H](NC(=O)Cc3ccc4ccccc4c3)C[C@H]2COc2cccc(c2)C1=O", "human Kv1.3 (Homo sapiens, UniProt P22001)", "3500 nM"]
]}

###

test: in vitro; type: in vitro ADME, mouse; settings: both, CD-1, mouse, plasma, 4 h, 10 µM
RECORDED METRIC: Plasma Stability 240 min mouse [% remain.] (% remain.)

{"columns": ["COMPOUND", "UNIT OF MEASURE", "NUMERIC RESULT"],
 "data": [
  ["CCN(CC)[C@@H]1C[C@H]2COc3ccc(cc3)C(=O)N(C)[C@H](C(=O)NCc3ccc4ccccc4c3)CCC(=O)N(C)CC(=O)N2C1 [Ex. 262]", "% remain.", 93],
  ["CN1CC(=O)N2C[C@H](NC(=O)CCc3ccncc3)C[C@H]2COc2ccc(cc2)C(=O)N(C)[C@H](C(=O)NCc2ccc3ccccc3c2)CCC1=O [Ex. 260]", "% remain.", 100],
  ["CN1CC(=O)N2C[C@@H](N)C[C@H]2COc2ccc(F)cc2C(=O)N(C)[C@@H](C(=O)NCc2ccc3ccccc3c2)CCC1=O [Ex. 91]", "% remain.", 88],
  ["CN(C)CCNC(=O)[C@@H]1CCC(=O)N(C)CC(=O)N2C[C@@H](NCCc3cccc4ccccc34)C[C@H]2COc2ccc(F)cc2C(=O)N1C [Ex. 486]", "% remain.", 98],
  ["CN1CCC[C@H](NC(=O)CC(C)(C)C)C(=O)N2C[C@@H](O)C[C@H]2COc2cccc(c2)C1=O [Ex. 571]", "% remain.", 89],
  ["CC(=O)N[C@H]1CN(C)C(=O)c2cccc(c2)OC[C@@H]2C[C@H](NC(=O)CN(C)C)CN2C(=O)CN(C)C1=O [Ex. 208]", "% remain.", 90]
]}

###

Test: Metabolic stability assay, CD-1 mouse microsomes
Assay type: in vitro ADME
Conditions: both, CD-1, mouse, microsomes, 1 h, 10 µM
Method: 4. Plasma and Metabolic Stability Assays […] Microsomes from a human 50 donor mixed gender pool and 1:1 mixtures of microsomes from CD-1 mouse single-gender pools are purchased from Celsis (Belgium). […] After acetonitrile precipitation (2 volumes) and HPLC/MS/MS analysis metabolic turnover is expressed in % of the initial 0 minutes value and half life T½ (min) is calculated. […]
Each entry belongs to exactly one class, chosen by where its Metabolic Stability 60 min mouse [% remain.] falls: low value (below 50 % remain.), medium value (50 % remain. to below 90 % remain.), high value (90 % remain. or more)

{"columns": ["COMPOUND", "LABEL VALUE"],
 "data": [
  ["CN(C)CCNC(=O)[C@@H]1CCC(=O)N(C)CC(=O)N2C[C@@H](NC(=O)Nc3cccc4ccccc34)C[C@H]2COc2ccc(F)cc2C(=O)N1C [Ex. 482]", "medium value"],
  ["CC(=O)N1CCN([C@H]2CCCN(C)C(=O)c3cccc(c3)OC[C@@H]3C[C@H](O)CN3C2=O)CC1 [Ex. 582]", "high value"],
  ["CN1CCC[C@H](NC(=O)CC(C)(C)C)C(=O)N2C[C@@H](O)C[C@H]2COc2cccc(c2)C1=O [Ex. 571]", "medium value"],
  ["CN1C[C@H](NC(=O)OCc2ccccc2)C(=O)N(C)CC(=O)N2C[C@@H](NC(=O)OC(C)(C)C)C[C@H]2COc2cncc(c2)C1=O [Ex. 272]", "medium value"],
  ["CN1CCC[C@H](NC(=O)Cc2ccccc2)C(=O)N2C[C@@H](O)C[C@H]2COc2cccc(c2)C1=O [Ex. 574]", "high value"],
  ["CCCCCCCCCC(=O)N[C@H]1C[C@H]2COc3ccc(F)cc3C(=O)N(C)[C@@H](C(=O)NCc3ccc4ccccc4c3)CCC(=O)N(C)CC(=O)N2C1 [Ex. 102]", "low value"],
  ["CO[C@H]1C[C@H]2COc3cccc(c3)C(=O)N(C)CCC[C@H](NC(=O)CC(C)(C)C)C(=O)N2C1 [Ex. 572]", "medium value"],
  ["CN1CC(=O)N2C[C@@H](NC(=O)Cc3cccc4ccccc34)C[C@H]2COc2ccc(F)cc2C(=O)N(C)[C@H](C(=O)NCCNC(=N)N)CCC1=O [Ex. 484]", "high value"],
  ["CCCCC(=O)N[C@H]1C[C@H]2COc3ccc(F)cc3C(=O)N(C)[C@@H](C(=O)NCc3ccc4ccccc4c3)CCC(=O)N(C)CC(=O)N2C1 [Ex. 103]", "low value"],
  ["CN1CC(=O)N2CC(NC(=O)Cc3cccc4ccccc34)CC2COc2ccc(F)cc2C(=O)N(C)C(C(=O)NCCNc2ccccn2)CCC1=O (stereo not shown) [Ex. 485]", "low value"],
  ["CC(=O)N[C@H]1CN(C)C(=O)c2cccc(c2)OC[C@@H]2C[C@H](NC(=O)CN(C)C)CN2C(=O)CN(C)C1=O [Ex. 208]", "high value"],
  ["CCCCCCCCCC(=O)N[C@H]1CCCN(C)C(=O)c2cccc(c2)OC[C@@H]2C[C@H](NC(=O)Nc3cccc(N(C)C)c3)CN2C1=O [Ex. 511]", "low value"]
]}

###

This section presents compounds with their documented inhibition at 10 µM values.
target: Motilin Receptor (Homo sapiens, UniProt O43193); construct: host or cells: Ca2+ optimized hematopoietic cell lines (rat); test: Ca2+ assay (FLIPR) for the GPCR motilin receptor, agonist and antagonist mode; assay type: cell-based; settings: antagonist mode, at 10 μM
Sequence (O43193 whole entry, species assumed): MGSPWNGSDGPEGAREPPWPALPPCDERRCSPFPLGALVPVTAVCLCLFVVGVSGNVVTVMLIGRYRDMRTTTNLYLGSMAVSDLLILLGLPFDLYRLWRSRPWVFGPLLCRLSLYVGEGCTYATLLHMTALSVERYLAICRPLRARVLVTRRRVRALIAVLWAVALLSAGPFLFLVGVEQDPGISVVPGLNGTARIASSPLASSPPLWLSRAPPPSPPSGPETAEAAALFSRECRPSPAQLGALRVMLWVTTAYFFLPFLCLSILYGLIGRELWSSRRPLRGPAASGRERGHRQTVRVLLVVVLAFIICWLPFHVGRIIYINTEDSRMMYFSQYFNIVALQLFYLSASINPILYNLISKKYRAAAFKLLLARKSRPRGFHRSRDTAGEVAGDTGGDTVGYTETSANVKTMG
RECORDED METRIC: inhibition at 10 µM (%)

{"columns": ["STRUCTURE SMILES", "NUMERIC RESULT"],
 "data": [
  ["CN1CC(=O)N2C[C@@H](NC(=O)Cc3cccc4ccccc34)C[C@H]2COc2ccc(F)cc2C(=O)N(C)[C@H](C(=O)NCCNC(=N)N)CCC1=O", 99],
  ["CN1CC(=O)N2C[C@@H](NC(=O)Cc3c[nH]c4ccccc34)C[C@H]2COc2ccc(F)cc2C(=O)N(C)[C@H](C(=O)NCCc2c[nH]c3ccccc23)CCC1=O", 95],
  ["CN(C)CCNC(=O)[C@@H]1CCC(=O)N(C)CC(=O)N2C[C@@H](NC(=O)Cc3c[nH]c4ccccc34)C[C@H]2COc2ccc(F)cc2C(=O)N1C", 79],
  ["CN(C)CCNC(=O)[C@@H]1CCC(=O)N(C)CC(=O)N2C[C@@H](NC(=O)Cc3cccc4ccccc34)C[C@H]2COc2ccc(F)cc2C(=O)N1C", 98],
  ["CC(=O)NCCNC(=O)[C@@H]1CCC(=O)N(C)CC(=O)N2C[C@@H](NC(=O)Cc3cccc4ccccc34)C[C@H]2COc2ccc(F)cc2C(=O)N1C", 47],
  ["COc1cccc(CC(=O)N[C@H]2C[C@H]3COc4ccc(F)cc4C(=O)N(C)[C@H](C(=O)NCCN(C)C)CCC(=O)N(C)CC(=O)N3C2)c1", 31]
]}
